B1: MFF (parent)
chain: YTEGISQRMRVPEKLKVAPPNADL

Variants of: B1
Protocol Summary: protein stability index of a GFP-peptide fusion (GPS, HEK-293T) (PSI 1-6); higher = more stable;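 further: lentivirally expressed fusions sorted by FACS into six bins by GFP to DsRed ratio, PSI derived from sequencing read proportions per bin multiplied by bin number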
Conditions: c terminus: a fixed tail appended
# binarize protein stability index: threshold 3 inclusive, high side True, low side False

[ask] Could you verify whether the entry YTEQISQRMRVPEKLKVAPPNADL [G4Q] shows protein stability index of no less than 3?
[reply] True

[ask] Could you verify whether the entry YTEGISQRMRVPEKLKKAPPNADL [V17K] shows protein stability index of no less than 3?
[reply] True
